Tested on: CCRF-CEM
Experimental Details: Tested for minimum inhibitory concentration required to reduce virus-induced cytopathicity by 50% on CEM cell line infected with HIV-2 virus
Format: functional
Measurement Parameters: Homo sapiens
Catalogue of MIC50 readings, one per entry.

Known results for compounds:
CNCC1CC12C1CC3CC(C1)CC2C3 (stereo not given) | > 8 µg/mL
CN(C)C1CC12C1CC3CC(C1)CC2C3 (stereo not given) | > 200 µg/mL
NCC1CC12C1CC3CC(C1)CC2C3 (stereo not given) | > 8 µg/mL
CN(C)CC1CC12C1CC3CC(C1)CC2C3 (stereo not given) | > 40 µg/mL
O=C(Nc1ccc(Cl)cc1)N1CCCC12C1CC3CC(C1)CC2C3 (stereo not given) | > 1.6 µg/mL
CCN1CCCC12C1CC3CC(C1)CC2C3 (stereo not given) | > 200 µg/mL

Assign MIC50 to the following record: CNC1CC12C1CC3CC(C1)CC2C3 (stereo not given)
> 8 µg/mL

Assign MIC50 to the following record: CN1CCCC12C1CC3CC(C1)CC2C3 (stereo not given)
> 200 µg/mL

Assign MIC50 to the following record: NC1CC12C1CC3CC(C1)CC2C3 (stereo not given)
> 8 µg/mL

Assign MIC50 to the following record: C1CNC2(C1)C1CC3CC(C1)CC2C3 (stereo not given)
> 40 µg/mL
